Source: patent US20160046618A1

target: human recombinant BACE1 (Homo sapiens (Human), UniProt P56817); test: In vitro enzymatic BACE1 FRET assay; assay type: biochemical; settings: read-out: IC50 IP (μM) BACE1 enzyme
Sequence (P56817 46-501): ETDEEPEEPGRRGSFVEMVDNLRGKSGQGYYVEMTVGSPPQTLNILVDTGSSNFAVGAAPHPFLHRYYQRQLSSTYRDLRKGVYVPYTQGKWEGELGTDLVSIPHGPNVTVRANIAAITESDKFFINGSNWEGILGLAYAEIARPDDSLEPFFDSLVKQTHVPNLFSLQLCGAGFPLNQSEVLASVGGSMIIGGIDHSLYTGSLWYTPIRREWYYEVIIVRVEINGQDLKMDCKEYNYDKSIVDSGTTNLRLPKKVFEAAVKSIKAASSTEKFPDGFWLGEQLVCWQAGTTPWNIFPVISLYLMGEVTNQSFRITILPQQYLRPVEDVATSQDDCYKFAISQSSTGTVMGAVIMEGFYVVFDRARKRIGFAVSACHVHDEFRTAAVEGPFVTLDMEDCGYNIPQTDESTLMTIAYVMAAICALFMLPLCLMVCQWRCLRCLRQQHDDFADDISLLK
So basically, if IC50 comes in under 0.002 µM it's Criterion met, and if it's 0.002 µM or more it's Criterion not met.

Please review the following examples before continuing.
{"columns": ["smi", "test.system", "classification"],
 "data": [
  ["C#CCOc1cnc(C(=O)Nc2ccc(F)c([C@@]3(C)N=C(N)S[C@@]4(C(F)F)C[C@@H]34)c2)cn1", "human recombinant BACE1 (Homo sapiens (Human), UniProt P56817)", "Criterion met"],
  ["COC[C@]12C[C@H]1[C@@](C)(c1cc(Nc3nccc4cc(OCc5cocn5)cnc34)cc(F)c1F)N=C(N)S2", "human recombinant BACE1 (Homo sapiens (Human), UniProt P56817)", "Criterion not met"],
  ["C#CCOc1cnc(C(=O)Nc2cc(F)c(F)c([C@@]3(C)N=C(N)S[C@@]4(C(F)F)C[C@@H]34)c2)c(C)n1", "human recombinant BACE1 (Homo sapiens (Human), UniProt P56817)", "Criterion met"],
  ["COC[C@]12C[C@H]1[C@@](C)(c1cc(NC(=O)c3cnc(OCc4cc(C)no4)cn3)cc(F)c1F)N=C(N)S2", "human recombinant BACE1 (Homo sapiens (Human), UniProt P56817)", "Criterion met"],
  ["C[C@]1(c2cc(Nc3nccc4nc(OCc5cscn5)cnc34)cc(F)c2F)N=C(N)S[C@@]2(C(F)F)C[C@@H]12", "human recombinant BACE1 (Homo sapiens (Human), UniProt P56817)", "Criterion not met"]
]}

Is the reported IC50 for COc1ncc(Nc2nccc3nc(OCc4ncco4)cnc23)cc1[C@@]1(C)N=C(N)S[C@@]2(CF)C[C@H]21 strictly below 0.002 µM? Criterion not met

Problem: For the compound C[C@]1(c2cc(NC(=O)c3ccc(Cl)cn3)cc(F)c2F)N=C(N)S[C@@H]2[C@H]1C2(F)F , is IC50 under 0.002 µM? Criterion not met

Please state whether IC50 is below 0.002 µM for COC[C@]12C[C@H]1[C@@](C)(c1cc(Nc3nccc4nc(OCc5cocn5)cnc34)cc(F)c1F)N=C(N)S2 Criterion not met

Below 0.002 µM on IC50? Entry CC(C)[C@@H](C)NC(=O)[C@]12C[C@H]1[C@@](C)(c1cc(NC(=O)c3cnc(OCC(F)(F)F)cn3)ccc1F)N=C(N)S2 Criterion met

# strict comparison: is reported IC50 < 0.002 µM? input = C[C@]1(c2cc(NC(=O)c3cnc(OCC(F)(F)F)cn3)cc(F)c2F)N=C(N)S[C@@]2(CF)C[C@H]21 Criterion met

# check: IC50 < 0.002 µM for COC[C@H](C)Oc1cnc(C(=O)Nc2cc(F)c(F)c([C@@]3(C)N=C(N)S[C@@]4(C#N)C[C@H]43)c2)cn1 Criterion not met

Just wondering, is IC50 of CNC(=O)[C@]12C[C@H]1[C@@](C)(c1cc(NC(=O)c3ncc(OCC(F)(F)F)cc3C)cc(F)c1F)N=C(N)S2 below 0.002 µM? Criterion met

API: query returns whether the compound falls strictly under 0.002 µM in IC50. Query: C#CCOc1cnc2c(Nc3cnc(F)c([C@@]4(C)N=C(N)S[C@@]5(CO)C[C@H]54)c3)nccc2n1 Criterion met
